Numbers sourced from PubChem BioAssay.

TEST_METHOD_NOTES: BT084 cell growth, single and combined drugs, ICGC_MB145, cisplatin and BGB IC40 combos (AID 1671461);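 further: cells exposed to drugs for 96 hours; 0% = vehicle DMSO and 100% = high DMSO full killing control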
ASSAY_SETUP: BT084 medulloblastoma cells, drug combinations, at 0.5 µM, hits give high values
Activity calls are given as the source filed them. No stated cut-off is given here; in the data, active means inhibition above about 80%; inactive means the rest.
MEASURED_ATTRIBUTE: inhibition

Some solved cases for reference:
O=c1[nH]cnc2ccccc12: -14% (inactive)
COc1ccc(C(=O)CC2(O)C(=O)Nc3c(Cl)ccc(Cl)c32)cc1 (stereo not given): -18.2% (inactive)
Cc1ccc2nc(NCCN)c3ncc(C)n3c2c1: 4.08% (inactive)
CC(=O)[C@]1(N)Cc2c(O)c3c(c(O)c2[C@@H](O[C@H]2C[C@H](O)[C@H](O)CO2)C1)C(=O)c1ccccc1C3=O: 22.6% (inactive)
Nc1nc2n[nH]nc2c(=O)[nH]1: -32% (inactive)
COc1cc(C=O)c([N+](=O)[O-])cc1OC: 1.74% (inactive)
O=C(O)[C@H](Cc1c[nH]c2ccccc12)N1C(=O)c2ccccc2C1=O: -10.1% (inactive)
CO[C@H]1/C=C/O[C@@]2(C)Oc3c(C)c(O)c4c(O)c(c(/C=N\N5CCN(C6CCCC6)CC5)c(O)c4c3C2=O)NC(=O)/C(C)=C\C=C\[C@H](C)[C@H](O)[C@@H](C)[C@@H](O)[C@@H](C)[C@H](OC(C)=O)[C@@H]1C: -28.3% (inactive)
O=C(COc1cccc2c(=O)[nH]ccc12)c1ccccc1: -16.5% (inactive)

// next entry
Q: Query inhibition for CN(C)CCN1C(=O)c2cccc3cc(N)cc(c23)C1=O
Result: -6.16% (inactive)
